Where do these numbers come from? They come from PubChem BioAssay (Tox21).

assaySummary: qHTS assay to identify small molecule antagonists of the retinoid-related orphan receptor gamma (ROR-gamma) signaling pathway - cell viability counter screen (AID 1159520); note: nearly all actives have a fitted effect of over 50% in size
setupConditions: Tet-on RORgamma CHO cells viability, ATP luminescence, 16 h; series mostly up to 92.4 µM
Results filed as inconclusive are left out. Active and inactive are the calls of the source. Calls come from the whole dose curve; as a rule, active = well fitted cell-killing curve with a large enough effect in the repeat runs; inconclusive = weak or mixed curves, or effect the other way; inactive = no such curve, though single readings can be large or run the other way.
measuredEndpoint: activity, negative = cytotoxicity

Worked examples, 4 molecules total:
Query: So what's the measured activity, negative = cytotoxicity for this one? CC1(C)O[C@@H]2C[C@H]3[C@@H]4CCC5=CC(=O)CC[C@]5(C)[C@@]4(F)[C@@H](O)C[C@]3(C)[C@]2(C(=O)CCl)O1
Result: inactive

Query: Try the molecule OC[C@H]1O[C@@H](O[C@H]2[C@H](O)[C@@H](O)[C@H](O)O[C@@H]2CO)[C@H](O)[C@@H](O)[C@H]1O
Result: inactive

Query: Try the molecule Cc1ccc(C=O)s1
Result: inactive

Query: Try the molecule CN1CCN(C2=Nc3ccccc3Oc3ccc(Cl)cc32)CC1
Result: inactive

Next:
Query: So what's the measured activity, negative = cytotoxicity for this one? CC(C)(C)c1ccc(OC(=O)c2ccccc2O)cc1
Result: inactive

Query: Try the molecule CCOC(=O)c1ccccc1O
Result: inactive

Query: Try the molecule Cc1ccccc1C(=O)Nc1ccc(C(=O)N2CCCC(O)c3cc(Cl)ccc32)c(C)c1 (configuration not stated)
Result: inactive

Query: Try the molecule O=Cc1ccc(O)c(O)c1O
Result: inactive

Query: Try the molecule CCN(CC)CCOc1ccc(Cc2ccccc2)cc1
Result: inactive

Query: Try the molecule C=C(C)C(=O)OCCOP(=O)(O)O
Result: inactive

Query: Try the molecule Cc1ccc(C(C)C)cc1O
Result: inactive

Query: Try the molecule CC(CNC1CCCCC1)OC(=O)c1ccccc1 (configuration not stated)
Result: inactive

====

assaySummary: qHTS assay for identifying genotoxic compounds that show differential cytotoxicity against isogenic chicken DT40 cell lines with known DNA damage response pathways - Rad54/Ku70 mutant cell line (AID 743015); note: nearly all actives have a fitted effect of over 60% in size
setupConditions: DT40 Rad54/Ku70 mutant viability, CellTiter-Glo, 40 h; series mostly up to 66.8 µM
Records with an inconclusive call do not appear. Activity calls are given as the source filed them. Calls come from the whole dose curve; as a rule, active = well fitted cell-killing curve with a large enough effect in the repeat runs; inconclusive = weak or mixed curves; inactive = no such curve, though single readings can be large or run the other way.
The reply should be one of these categories: 1 = active, -1 = inactive

Example results:
Query: Entry FC(F)(F)c1ccccc1 : call = ?
Result: -1

Query: Try the molecule CC(=O)N(CC(O)CN(C(C)=O)c1c(I)c(C(=O)NCC(O)CO)c(I)c(C(=O)NCC(O)CO)c1I)c1c(I)c(C(=O)NCC(O)CO)c(I)c(C(=O)NCC(O)CO)c1I (configuration not stated)
Result: -1

Query: Try the molecule Cc1ccc([N+](=O)[O-])cc1Cl
Result: -1

Query: Try the molecule CC(C)OC(C)C
Result: -1

Next:
Query: Entry CCCCC1CCC(=O)O1 (configuration not stated) : call = ?
Result: -1

Query: Try the molecule FC(F)(F)C(Cl)(Cl)Cl
Result: -1

Query: Try the molecule CN1C(=O)CC(c2ccccc2)C1=O (configuration not stated)
Result: -1

Query: Try the molecule COc1ccccc1N1CCN(CCCNc2cc(=O)n(C)c(=O)n2C)CC1
Result: -1

Query: Try the molecule CCC(=O)c1ccc2c(c1)N(CCCN(C)C)c1ccccc1S2
Result: 1

Query: Try the molecule CCCNC(C)(C)COC(=O)c1ccccc1
Result: -1

Query: Try the molecule CCOc1ccc(NS(=O)(=O)c2ccc(N)cc2)nn1
Result: -1

Query: Try the molecule O=C(O)c1ccccc1Nc1cc(Cl)ccc1C(=O)O
Result: -1
